- measuredOn: Cannabinoid receptor 2 (Homo sapiens, UniProt P34972)
- Sequence (P34972 whole entry): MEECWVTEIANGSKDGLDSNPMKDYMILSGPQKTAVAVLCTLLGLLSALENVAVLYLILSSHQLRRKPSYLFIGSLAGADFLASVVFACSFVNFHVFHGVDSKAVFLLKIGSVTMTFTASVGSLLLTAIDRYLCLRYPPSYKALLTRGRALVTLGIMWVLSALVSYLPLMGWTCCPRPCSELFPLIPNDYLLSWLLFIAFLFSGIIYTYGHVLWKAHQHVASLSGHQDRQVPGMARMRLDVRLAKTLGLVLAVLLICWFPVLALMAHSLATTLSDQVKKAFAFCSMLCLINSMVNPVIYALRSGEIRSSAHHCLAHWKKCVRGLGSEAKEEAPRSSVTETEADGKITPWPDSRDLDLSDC
- measurementNotes: Displacement of [3H]WIN-55212-2 from human CB2 receptor expressed in CHOK1 cells by liquid scintillation spectrometry

smilesEntry	measuredOn	IC50 (nM)
COC(=O)NCc1c(-c2nnc(C(C)(C)C)o2)nn(-c2ccc(Cl)cc2Cl)c1-c1ccc(Cl)cc1	Cannabinoid receptor 2 (Homo sapiens, UniProt P34972)	1670
CC(C)(C)c1nnc(-c2nn(-c3ccc(Cl)cc3Cl)c(-c3ccc(Cl)cc3)c2Cn2ccnn2)o1	Cannabinoid receptor 2 (Homo sapiens, UniProt P34972)	1120
CC(C)(C)c1nnc(-c2nn(-c3ccc(Cl)cc3Cl)c(-c3ccc(Cl)cc3)c2COc2ccccc2)o1	Cannabinoid receptor 2 (Homo sapiens, UniProt P34972)	5910
C=C(C)c1c(-c2nnc(C(C)(C)C)o2)nn(-c2ccc(Cl)cc2Cl)c1-c1ccc(Cl)cc1	Cannabinoid receptor 2 (Homo sapiens, UniProt P34972)	1730

###

- measuredOn: Cannabinoid receptor 2 (Homo sapiens, UniProt P34972)
- measurementNotes: Displacement of [3H]WIN-55212-2 from human CB2 receptor expressed in CHOK1 cells by liquid scintillation spectrometry
# maps each entry to its IC50
attributeMeasured: IC50 (nM)

compound	operator	obsValue
CC(C)(C)c1nnc(-c2nn(-c3ccc(Cl)cc3Cl)c(-c3ccc(Cl)cc3)c2Cn2ncnn2)o1	=	680
Cc1c(-c2nnc(C(C)(C)C)o2)nn(-c2ccc(Cl)cc2Cl)c1-c1ccc(Cl)cc1	=	1410
CC(C)(C)c1nnc(-c2nn(-c3ccc(Cl)cc3Cl)c(-c3ccc(Cl)cc3)c2Cn2cccn2)o1	=	979
CC(C)(C)c1nnc(-c2nn(-c3ccc(Cl)cc3Cl)c(-c3ccc(Br)cc3)c2Cn2cncn2)o1	=	513
CC(=O)OCc1c(-c2nnc(C(C)(C)C)o2)nn(-c2ccc(Cl)cc2Cl)c1-c1ccc(Cl)cc1	=	1300
FC(F)(F)C1(c2nnc(-c3nn(-c4ccc(Cl)cc4Cl)c(-c4ccc(Br)cc4)c3Cn3cncn3)o2)CC1	=	948
CC(O)c1c(-c2nnc(C(C)(C)C)o2)nn(-c2ccc(Cl)cc2Cl)c1-c1ccc(Cl)cc1 (stereo not drawn)	=	1890
CCCc1c(-c2nnc(C(C)(C)C)o2)nn(-c2ccc(Cl)cc2Cl)c1-c1ccc(Cl)cc1	>	10000

###

# maps each entry to its IC50
- measuredOn: Cannabinoid receptor 1 (Rattus norvegicus, UniProt P20272)
- Sequence (P20272 whole entry): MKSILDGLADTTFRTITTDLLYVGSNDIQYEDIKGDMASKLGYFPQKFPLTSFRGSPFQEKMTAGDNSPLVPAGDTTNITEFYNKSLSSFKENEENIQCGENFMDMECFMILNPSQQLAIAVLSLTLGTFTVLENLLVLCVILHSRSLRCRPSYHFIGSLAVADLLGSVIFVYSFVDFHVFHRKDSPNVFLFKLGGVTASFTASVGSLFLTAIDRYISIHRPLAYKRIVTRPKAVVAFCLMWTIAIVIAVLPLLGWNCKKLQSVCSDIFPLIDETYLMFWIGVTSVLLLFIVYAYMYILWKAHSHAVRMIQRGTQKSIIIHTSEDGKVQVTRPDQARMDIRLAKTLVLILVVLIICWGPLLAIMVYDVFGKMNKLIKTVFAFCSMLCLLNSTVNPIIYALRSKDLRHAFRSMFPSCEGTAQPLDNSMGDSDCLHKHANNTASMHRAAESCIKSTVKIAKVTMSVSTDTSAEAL
attributeMeasured: IC50 (nM)

smilesEntry	obsValue
Cc1c(-c2nnc(C(C)(C)c3ccccc3)o2)nn(-c2ccc(Cl)cc2Cl)c1-c1ccc(Cl)cc1	8.42
Cc1c(-c2nnc(C(C)C)o2)nn(-c2ccc(Cl)cc2Cl)c1-c1ccc(Cl)cc1	25
CCCCC(C)(C)c1nnc(-c2nn(-c3ccc(Cl)cc3Cl)c(-c3ccc(Cl)cc3)c2C)o1	14.7
CCC(C)(C)c1nnc(-c2nn(-c3ccc(Cl)cc3Cl)c(-c3ccc(Cl)cc3)c2C)o1	10.4
Cc1c(-c2nnc(C3CCCCCC3)o2)nn(-c2ccc(Cl)cc2Cl)c1-c1ccc(Cl)cc1	26.5
C[C@H](NC(=O)C(C)(C)Oc1ccc(C(F)(F)F)cn1)[C@@H](Cc1ccc(Cl)cc1)c1cccc(C#N)c1	0.86
Cc1c(-c2nnc(-c3ccccc3)o2)nn(-c2ccc(Cl)cc2Cl)c1-c1ccc(Cl)cc1	281
CC(C)(C)c1nnc(-c2nn(-c3ccc(Cl)cc3Cl)c(-c3ccc(Cl)cc3)c2CO)o1	14.6

###

# maps each entry to its pIC50
- measuredOn: Cannabinoid receptor 2 (Homo sapiens)
- measurementNotes: Displacement of [3H]WIN-55212-2 from human CB2 receptor expressed in CHOK1 cells by liquid scintillation spectrometry
pIC50: −log10 of the molar value.
attributeMeasured: pIC50

molecule	attributeMeasured	obsValue
Clc1ccc(-c2c(Cn3cncn3)c(-c3nnc(C4(c5ccc(Cl)cc5)CC4)o3)nn2-c2ccc(Cl)cc2Cl)cc1	pIC50	5.83
CC(F)c1c(-c2nnc(C(C)(C)C)o2)nn(-c2ccc(Cl)cc2Cl)c1-c1ccc(Cl)cc1 (stereo not drawn)	pIC50	6.03
CC(C)(C)c1nnc(-c2nn(-c3ccc(Cl)cc3Cl)c(-c3ccc(Cl)cc3)c2C2CC2)o1	pIC50	5.48
Clc1ccc(-c2c(Cn3cncn3)c(-c3nnc(C4(c5ccccc5)CC4)o3)nn2-c2ccc(Cl)cc2Cl)cc1	pIC50	5.95
Cc1ccc(C2(c3nnc(-c4nn(-c5ccc(Cl)cc5Cl)c(-c5ccc(Br)cc5)c4Cn4cncn4)o3)CC2)cc1	pIC50	6.24
CCc1c(-c2nnc(C(C)(C)C)o2)nn(-c2ccc(Cl)cc2Cl)c1-c1ccc(Cl)cc1	pIC50	5.63
Cc1ccc(C2(c3nnc(-c4nn(-c5ccc(Cl)cc5Cl)c(-c5ccc(Cl)cc5)c4Cn4cncn4)o3)CC2)cc1	pIC50	5.91
CC(C)(C)c1nnc(-c2nn(-c3ccc(Cl)cc3Cl)c(-c3ccc(Cl)cc3)c2Cn2ccnc2)o1	pIC50	6.42
